system: pigweed (Amaranthus retroflexus); experiment: Test A greenhouse herbicide test, pre- and postemergence; format: in vivo; settings: Preemergence, 500 g ai/ha; 0 to 100 scale where 0 is no effect and 100 is complete control
Entries and their Plant response rating, Pigweed
Keep the answer to the number alone.

Check out these entries, answers already filled in.
INSERT INTO results (smiles_notation, assayed_target, property_name, test_result) VALUES
  ('Cc1ccc2ccccc2c1-c1c(O)c([N+](=O)[O-])nn(C)c1=O', 'pigweed (Amaranthus retroflexus)', 'Plant response rating, Pigweed', 0),
  ('CC(=O)Oc1c(C#N)nn(C)c(=O)c1-c1c(C)ccc2ccccc12', 'pigweed (Amaranthus retroflexus)', 'Plant response rating, Pigweed', 100),
  ('Cc1sc2ccccc2c1-c1c(OC(=O)OC(C)C)c(Cl)nn(C)c1=O', 'pigweed (Amaranthus retroflexus)', 'Plant response rating, Pigweed', 90),
  ('COc1nn(C)c(=O)c(-c2c(C)sc3ccc(Cl)cc23)c1O', 'pigweed (Amaranthus retroflexus)', 'Plant response rating, Pigweed', 100);

API: the following record is the query input.
The reported value for "COC(=O)Oc1c(Cl)nn(C)c(=O)c1-c1c(C)sc2ccc(Cl)cc12" in terms of Plant response rating, Pigweed is 90

----------
test system: soybean (Glycine max); experiment: Test C greenhouse herbicide test, pre- and postemergence; assay type: in vivo; settings: Postemergence, 31 g ai/ha; 0 to 100 scale (0 no effect, 100 complete control)
PROPERTY_NAME: Soybean plant response rating
Keep the answer to the number alone.

INSERT INTO assay_data (molecule, property_name, test_result) VALUES
  ('CCC(=O)Oc1c(C)nn(C)c(=O)c1-c1c(C)sc2c(C)cc(C)cc12 [Compound 28]', 'Soybean plant response rating', 0),
  ('COc1ccc2ccccc2c1-c1c(O)c(C)nn(C)c1=O [Compound 40]', 'Soybean plant response rating', 5),
  ('CCOC(=O)Oc1c(C)nn(C)c(=O)c1-c1c(CC)ccc2ccccc12 [Compound 37]', 'Soybean plant response rating', 10);

The reported value for Cc1cc(C)c2ccccc2c1-c1c(O)cnn(C)c1=O [Compound 51] in terms of Soybean plant response rating is 0

----------
test system: bluegrass (annual bluegrass, Poa annua); assay: Test D controlled growth environment herbicide test, pre- and postemergence; assay type: in vivo; details: Preemergence, 250 g ai/ha; scale 0 to 100 (0 no effect, 100 complete control)
PROPERTY_NAME: Plant response rating, Bluegrass
Keep the answer to the number alone.

Check out these entries, answers already filled in.
INSERT INTO measurements (molecule, assayed_target, test_result) VALUES
  ('CCC(=O)Oc1c(C)nn(C)c(=O)c1-c1c(C)sc2ccc(Cl)cc12 [Compound 109]', 'bluegrass (annual bluegrass, Poa annua)', 60),
  ('Cc1ccc2ccc(C)c(-c3c(O)c(C)nn(C)c3=O)c2c1 [Compound 60]', 'bluegrass (annual bluegrass, Poa annua)', 80),
  ('Cc1ccc(-c2c(O)c(Br)nn(C)c2=O)c2ccccc12 [Compound 52]', 'bluegrass (annual bluegrass, Poa annua)', 35);

The reported value for CCOC(=O)Oc1c(C)nn(C)c(=O)c1-c1c(C)sc2c(C)cc(C)cc12 [Compound 83] in terms of Plant response rating, Bluegrass is 35

The reported value for CC(=O)Oc1c(C)nn(C)c(=O)c1-c1c(C)cc(C)c2ccccc12 [Compound 153] in terms of Plant response rating, Bluegrass is 75

----------
test system: canarygrass (Phalaris minor); experiment: Test D controlled growth environment herbicide test, pre- and postemergence; format: in vivo; details: Postemergence, 125 g ai/ha; visual rating on scale 0 (no effect) to 100 (complete control), 14 to 21 d
From the text: […]
PROPERTY_NAME: Plant response rating, Canarygrass
Keep the answer to the number alone.

INSERT INTO assay_data (smiles_notation, test_result) VALUES
  ('CC(=O)Oc1c(C)nn(C)c(=O)c1-c1ccc(F)c2ccccc12', 75),
  ('Cc1cc(C)c2sc(C)c(-c3c(OC(=O)OC(C)C)c(C)nn(C)c3=O)c2c1', 85),
  ('COC(=O)Oc1c(C)nn(C)c(=O)c1-c1c(C)sc2c(C)cc(C)cc12', 95);

API: the following record is the query input.
Simply: "CCC(=O)Oc1c(C)nn(C)c(=O)c1-c1c(C)sc2c(C)cc(C)cc12" , canarygrass (Phalaris minor), Plant response rating, Canarygrass = 80

----------
tested on: field violet (Viola arvensis); test: Test D controlled growth environment herbicide test, pre- and postemergence; assay type: in vivo; details: Postemergence, 250 g ai/ha; scale 0 to 100 (0 no effect, 100 complete control)
Entries and their Plant response rating, Field Violet
Keep the answer to the number alone.

Check out these entries, answers already filled in.
INSERT INTO assay_data (smiles_notation, test_result) VALUES
  ('C#CCOC(=O)Oc1c(C)nn(C)c(=O)c1-c1c(C)sc2ccc(C)cc12', 100),
  ('CC(=O)Oc1c(C)nn(C)c(=O)c1-c1c(C)sc2c(C)cc(C)cc12', 85),
  ('CC(=O)Oc1c(Br)nn(C)c(=O)c1-c1c(C)ccc2ccccc12', 75),
  ('CC(=O)Oc1c(C)nn(C)c(=O)c1-c1c(C)cc(C)c2ccccc12', 100),
  ('CC(=O)Oc1c(C)nn(C)c(=O)c1-c1ccc(F)c2ccccc12', 100);

The reported value for "CCC(=O)Oc1c(C)nn(C)c(=O)c1-c1c(C)sc2c(C)cc(C)cc12" in terms of Plant response rating, Field Violet is 90

----------
system: foxtail, green (green foxtail, Setaria viridis); test: Test E greenhouse herbicide test, pre- and postemergence; assay type: in vivo; conditions: Preemergence, 250 g ai/ha; visual, scale 0 no effect to 100 complete control
PROPERTY_NAME: Plant response rating, Foxtail, Green
Keep the answer to the number alone.

Check out these entries, answers already filled in.
INSERT INTO measurements (compound, property_name, test_result) VALUES
  ('C#CCOC(=O)Oc1c(C)nn(C)c(=O)c1-c1c(C)sc2ccc(C)cc12 [Compound 87]', 'Plant response rating, Foxtail, Green', 80),
  ('Cc1ccc2ccccc2c1-c1c(O)c(C)nn(C)c1=O [Compound 59]', 'Plant response rating, Foxtail, Green', 100),
  ('CC(=O)Oc1c(C)nn(C)c(=O)c1-c1c(C)sc2ccc(C)cc12 [Compound 25]', 'Plant response rating, Foxtail, Green', 100),
  ('CCOC(=O)Oc1c(C)nn(C)c(=O)c1-c1c(C)sc2c(C)cc(C)cc12 [Compound 83]', 'Plant response rating, Foxtail, Green', 70);

API: the following record is the query input.
The reported value for CC(=O)Oc1c(C)nn(C)c(=O)c1-c1c(C)sc2c(C)cc(C)cc12 [Compound 27] in terms of Plant response rating, Foxtail, Green is 100

----------
system: oat, wild (wild oat, Avena fatua); experiment: Test C greenhouse herbicide test, postemergence; assay type: in vivo; settings: Postemergence, 250 g ai/ha; scale 0 to 100, 0 no effect, 100 complete control; 13 to 15 d
Mark y only for Plant response rating, Oat, Wild values smaller than 90; exact matches and larger values are n.

Field: example entries. Status: answers known.
INSERT INTO assay_data (molecule, group_label) VALUES
  ('COC(=O)Oc1c(C)nn(C)c(=O)c1-c1c(C)sc2c(C)cc(C)cc12 [Compound 81]', 'n'),
  ('Cc1ccc2ccccc2c1-c1c(O)c(C)nn(C)c1=O [Compound 59]', 'n'),
  ('COc1nn(C)c(=O)c(-c2c(C)ccc3ccccc23)c1O [Compound 54]', 'y');

Asked: Does COc1nn(C)c(=O)c(-c2c(C)sc3ccccc23)c1O [Compound 33] have Plant response rating, Oat, Wild strictly under 90?
Given back: y

Asked: Does Cc1ccc2ccccc2c1-c1c(O)cnn(C)c1=O [Compound 56] have Plant response rating, Oat, Wild strictly under 90?
Given back: y

----------
test system: deadnettle (henbit deadnettle, Lamium amplexicaule); assay: Test D controlled growth environment herbicide test, pre- and postemergence; format: in vivo; details: Postemergence, 250 g ai/ha; scale 0 to 100 (0 no effect, 100 complete control)
Entries and their Plant response rating, Deadnettle
Keep the answer to the number alone.

The reported value for CC(=O)Oc1c(C)nn(C)c(=O)c1-c1c(C)sc2ccc(C)cc12 [Compound 25] in terms of Plant response rating, Deadnettle is 45

The reported value for Cc1nn(C)c(=O)c(-c2c(C)sc3ccc(Cl)cc23)c1O [Compound 104] in terms of Plant response rating, Deadnettle is 85

The reported value for COc1nn(C)c(=O)c(-c2c(C)ccc3ccccc23)c1O [Compound 54] in terms of Plant response rating, Deadnettle is 100

The reported value for Cc1ccc2ccc(C)c(-c3c(O)c(C)nn(C)c3=O)c2c1 [Compound 60] in terms of Plant response rating, Deadnettle is 95

The reported value for COC(=O)Oc1c(C)nn(C)c(=O)c1-c1c(C)sc2c(C)cc(C)cc12 [Compound 81] in terms of Plant response rating, Deadnettle is 60

The reported value for CCC(=O)Oc1c(C)nn(C)c(=O)c1-c1c(C)sc2ccc(Cl)cc12 [Compound 109] in terms of Plant response rating, Deadnettle is 95

The reported value for CCC(=O)Oc1c(C)nn(C)c(=O)c1-c1c(C)sc2c(C)cc(C)cc12 [Compound 28] in terms of Plant response rating, Deadnettle is 70

The reported value for CCOC(=O)Oc1c(C)nn(C)c(=O)c1-c1c(C)ccc2ccccc12 [Compound 73] in terms of Plant response rating, Deadnettle is 100

The reported value for COc1nn(C)c(=O)c(-c2c(C)ccc3ccccc23)c1OC(=O)OC(C)C [Compound 36] in terms of Plant response rating, Deadnettle is 100
